- Test system: FXR:RXRa (NR concentration 270 nM, RXRa partner concentration 90 nM)
- EXPERIMENT: PBM binding z-score (relative to random genomic background probes); higher = stronger binding; sequences stand for … in GC…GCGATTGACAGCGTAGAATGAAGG
I'd be grateful if you could share measured PBM binding z-score for these entries.
Just the number, please, no unit attached.

What value of measured PBM binding z-score is listed for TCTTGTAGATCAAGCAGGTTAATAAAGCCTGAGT ?
0.189

What value of measured PBM binding z-score is listed for GGAACGAGGGCAAAGATGATAGCATCTGTCGACG ?
0.376

What value of measured PBM binding z-score is listed for ACTAGAAGGCCAAGTTTGGGTCACTCAAACAAAG ?
0.681

What value of measured PBM binding z-score is listed for CTCGAAGGGTCGTGCTCAGGTGAGTATACCAAAC ?
2.01

What value of measured PBM binding z-score is listed for TGTTGTAGATCAAGCAGGTTAAGAAAGCCTGAGT ?
-0.212

What value of measured PBM binding z-score is listed for ATGTCTAGGTAAAGATAGTTCAGTGAATGCAAAT ?
0.0456

What value of measured PBM binding z-score is listed for TGTCAAAATTCAAAGGTAACGTAAGTATCCACAC ?
0.567

What value of measured PBM binding z-score is listed for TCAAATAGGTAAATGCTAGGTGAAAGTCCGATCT ?
1.32

What value of measured PBM binding z-score is listed for ATGTGTAGGTTAGCTGGGGTCATTCAGACTAGGC ?
4.6

What value of measured PBM binding z-score is listed for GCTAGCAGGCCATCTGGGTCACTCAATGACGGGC ?
0.0876

What value of measured PBM binding z-score is listed for CGCGAAAGGTCGTGCTCAGGTGAGTATACCAAAC ?
5.65

What value of measured PBM binding z-score is listed for GCTAGCACGCCATTTGGGTCACTCAATGACGGGC ?
-0.103

What value of measured PBM binding z-score is listed for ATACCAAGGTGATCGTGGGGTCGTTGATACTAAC ?
1.56

What value of measured PBM binding z-score is listed for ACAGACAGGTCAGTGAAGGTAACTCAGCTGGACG ?
2.55

What value of measured PBM binding z-score is listed for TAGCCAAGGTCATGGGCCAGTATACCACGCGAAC ?
7.33

What value of measured PBM binding z-score is listed for TAGCCTAGGTCATGCGGGGCAGTATAGTGTCGGC ?
3.99

What value of measured PBM binding z-score is listed for GCAGACAGGTGAAACGCAGGCAACTCAGGGTGGC ?
-0.553

What value of measured PBM binding z-score is listed for TCAGACATGTGAAGGTAACTCAGGTACGCAGTCG ?
0.329

What value of measured PBM binding z-score is listed for CTCGAAAGGTCGGTTGAAGTGAGTATACGGATAA ?
1.48

What value of measured PBM binding z-score is listed for CCTACTGGACCATTCAGAGGTCATTGATCATATG ?
3.05

What value of measured PBM binding z-score is listed for CATACGGGGTCAGCTAGGCCAGAGTAGGGACGGC ?
7.18

What value of measured PBM binding z-score is listed for AAAACGAGGGCAATGAGTTGATAGCACGGGTGGC ?
0.531

What value of measured PBM binding z-score is listed for TCAATGAGGTTAAAGATCAGGGAACGTGGCGTCG ?
3.28

What value of measured PBM binding z-score is listed for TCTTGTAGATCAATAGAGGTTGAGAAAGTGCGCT ?
0.33

What value of measured PBM binding z-score is listed for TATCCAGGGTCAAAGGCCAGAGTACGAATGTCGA ?
7.03

What value of measured PBM binding z-score is listed for CGTCAAAGTTCAACTAAGGTAAGGTAAAGCACGC ?
7.07

What value of measured PBM binding z-score is listed for GTTGCTAGGTCAGGTTGGTCAGCTAACGGGTACG ?
1.81

What value of measured PBM binding z-score is listed for AGCATGAGGTTATACGTAGATCAGGGAAGAAAGT ?
1.93

What value of measured PBM binding z-score is listed for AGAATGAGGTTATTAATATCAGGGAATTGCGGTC ?
1.19

What value of measured PBM binding z-score is listed for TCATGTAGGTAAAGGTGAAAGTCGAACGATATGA ?
1.05

What value of measured PBM binding z-score is listed for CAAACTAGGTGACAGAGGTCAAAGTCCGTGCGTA ?
4.84

What value of measured PBM binding z-score is listed for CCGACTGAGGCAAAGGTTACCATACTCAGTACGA ?
0.7

What value of measured PBM binding z-score is listed for CCTTACGGGTCACGAGGTTATGGCACGACGAGCG ?
6.57

What value of measured PBM binding z-score is listed for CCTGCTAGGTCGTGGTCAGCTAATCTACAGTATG ?
0.204

What value of measured PBM binding z-score is listed for CCTTACGGGTCACTGTCAGGTTATAGCATTTGGA ?
5.05

What value of measured PBM binding z-score is listed for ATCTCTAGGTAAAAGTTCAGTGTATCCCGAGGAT ?
0.805

What value of measured PBM binding z-score is listed for CCGACTGGGACATAAGGTTACCATAAGCCAGCCC ?
0.338

What value of measured PBM binding z-score is listed for CGAACTATGTCAGAACAGGACAGTGAAGGATGAT ?
0.0056

What value of measured PBM binding z-score is listed for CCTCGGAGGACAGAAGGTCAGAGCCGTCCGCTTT ?
1.62

What value of measured PBM binding z-score is listed for TCAGACAGGTGAAGGTAACGCAGGTACGCAGTCG ?
0.226

What value of measured PBM binding z-score is listed for TCTCCTAGGTCAGTTGGTCAGCTAACGAGCTGCC ?
1.57

What value of measured PBM binding z-score is listed for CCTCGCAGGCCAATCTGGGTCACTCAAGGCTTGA ?
0.68

What value of measured PBM binding z-score is listed for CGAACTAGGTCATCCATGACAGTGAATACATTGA ?
3.96

What value of measured PBM binding z-score is listed for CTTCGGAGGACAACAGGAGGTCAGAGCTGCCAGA ?
1.34

What value of measured PBM binding z-score is listed for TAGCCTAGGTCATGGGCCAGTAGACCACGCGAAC ?
4.96

What value of measured PBM binding z-score is listed for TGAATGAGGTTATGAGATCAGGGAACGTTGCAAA ?
1.67

What value of measured PBM binding z-score is listed for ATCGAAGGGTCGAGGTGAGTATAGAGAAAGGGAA ?
1.41

What value of measured PBM binding z-score is listed for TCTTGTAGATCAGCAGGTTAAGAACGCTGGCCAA ?
-0.138

What value of measured PBM binding z-score is listed for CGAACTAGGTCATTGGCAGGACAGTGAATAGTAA ?
4.29

What value of measured PBM binding z-score is listed for CGAAGTAGGTCATCCAGGACAGTGAATACATTGA ?
4.86

What value of measured PBM binding z-score is listed for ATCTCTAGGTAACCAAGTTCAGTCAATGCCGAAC ?
0.839
